Molecular target: acetylcholine muscarinic M1 receptor (Homo sapiens, UniProt P11229)
Construct: expressed in transfected cells; host or cells: CHOnfat (CHO cells; also called CHOK1/hM1)
Assay: Muscarinic M1 FLIPR intracellular calcium assay for positive allosteric modulators
Type: cell-based
Settings: IP = inflection point calculated from FLIPR values; CHOnfat/hM1 cells; 4 min preincubation, then EC20 acetylcholine (3 nM final); read-out: IP Value
Protocol: The assay studies the effect of one or several concentrations of test compounds on basal or acetylcholine-stimulated Ca^2+ levels using FLIPR. Compounds are prepared and subjected to a preincubation period of 4 min. Thereafter, a single EC20 concentration of acetylcholine is added to each well (3 nM final). The intracellular Ca^2+ level of each sample is measured and compared to an acetylcholine control to determine any modulatory activity. […]
Entries annotated with measured pEC50
Kindly note that pEC50 refers to -log10 of the concentration in mol/L and answer with the value alone.

Some solved cases for reference:
*Q* Which pEC50 is listed for O=C(N[C@H]1CCCC[C@@H]1O)c1cc(Cc2ccc(Cl)nc2)c2ccccc2[n+]1[O-] ?
*A* 6.83

*Q* Further, for O=C(N[C@H]1CCCC[C@@H]1O)c1cc(Cc2ccc(Cl)nc2)c2ccccc2n1 ?
*A* 7.39

Please turn your attention to the following entry.
*Q* Data request, read-out pEC50, for COc1cc(Cc2cc(C(=O)N[C@H]3CCOC[C@@H]3O)nc3ccccc23)ccn1
*A* 7.34

* * *

Target: acetylcholine muscarinic M1 receptor (Homo sapiens, UniProt P11229)
Construct: expressed in transfected cells; host or cells: CHOnfat (CHO cells; also called CHOK1/hM1)
Sequence (P11229 1-460): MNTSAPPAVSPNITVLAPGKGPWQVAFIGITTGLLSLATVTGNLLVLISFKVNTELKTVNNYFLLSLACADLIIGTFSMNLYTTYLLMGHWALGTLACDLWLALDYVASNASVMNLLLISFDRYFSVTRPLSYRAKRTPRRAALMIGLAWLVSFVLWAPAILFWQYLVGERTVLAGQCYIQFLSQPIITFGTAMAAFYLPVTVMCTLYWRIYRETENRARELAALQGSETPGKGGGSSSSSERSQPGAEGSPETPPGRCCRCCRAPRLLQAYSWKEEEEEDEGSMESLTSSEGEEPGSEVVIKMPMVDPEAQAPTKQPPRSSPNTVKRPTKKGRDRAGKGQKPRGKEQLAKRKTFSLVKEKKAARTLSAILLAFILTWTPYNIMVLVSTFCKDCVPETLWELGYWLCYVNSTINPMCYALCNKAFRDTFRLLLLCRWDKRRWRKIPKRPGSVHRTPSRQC
Test: Muscarinic M1 FLIPR intracellular calcium assay for positive allosteric modulators
Type: cell-based
Conditions: IP = inflection point calculated from FLIPR values; CHOnfat/hM1 cells; 4 min preincubation, then EC20 acetylcholine (3 nM final); read-out: IP Value
RECORDED ENDPOINT: EC50 (nM)
Provide the reading as a plain figure in nM.

In the examples that follow, each entry is paired with its recorded EC50.
*Q* Give its EC50 value. Item: COc1cc(Cc2cc(C(=O)N[C@H]3CCOC[C@@H]3O)nc3c(F)cccc23)ccn1
*A* 27

*Q* Ok, now Cn1cc(-c2ccc(Cc3cc(C(=O)N[C@H]4COCC[C@@H]4O)nc4ccccc34)cn2)cn1
*A* 17

*Q* Repeat for the following compound: O=C(N[C@H]1CCCC[C@@H]1O)c1cc(Cc2cccnc2)c2ccccc2n1
*A* 81

*Q* Then this compound: COc1cc(Cc2cc(C(=O)N[C@H]3CCOC[C@@H]3O)nc3c(F)cccc23)cc[n+]1[O-]
*A* 411

*Q* Next up: COc1ccc(C(F)c2cc(C(=O)N[C@H]3CCOC[C@@H]3O)nc3ccccc23)cn1 (stereo partly shown) [Example 15, hydrate]
*A* 52

*Q* Another: COc1ccc(Cc2cc(C(=O)N[C@H]3CCOC[C@@H]3O)nc3c(F)cccc23)c[n+]1[O-]
*A* 210

*Q* What would you report for O=C(N[C@H]1CCOC[C@@H]1O)c1cc(Cc2ccc(Cl)nc2)c2cccc(F)c2n1 ?
*A* 22

*Q* What about CCOc1ccc(Cc2cc(C(=O)N[C@H]3CCOC[C@@H]3O)nc3ccccc23)cn1 ?
*A* 60

*Q* Thanks! And O=C(N[C@H]1CCOC[C@@H]1O)c1cc(Cc2ccc(C(F)F)nc2)c2cccc(F)c2n1 ?
*A* 18

*Q* Okay, and COc1ccc(Cc2cc(C(=O)N[C@H]3CCOC[C@@H]3O)nc3c(F)ccc(F)c23)cn1 ?
*A* 33

New cases:
*Q* Please report the recorded EC50 for Cn1cc(-c2ccc(Cc3cc(C(=O)N[C@H]4CCCC[C@@H]4O)nc4ccccc34)cn2)cn1 .
*A* 6

*Q* // next record Cn1cc(-c2ccc(Cc3cc(C(=O)N[C@H]4CCCC[C@@H]4F)nc4ccccc34)cn2)cn1
*A* 261

*Q* Note, next up: CSc1ncc(Cc2cc(C(=O)N[C@H]3CCOC[C@@H]3O)nc3ccccc23)cn1
*A* 316

*Q* Input O=C(N[C@H]1CCCC[C@@H]1O)c1cc(Cc2ccc(C3CC3)nc2)c2ccccc2n1
*A* 39

*Q* Check COc1ccc(C(F)c2cc(C(=O)N[C@H]3CCOC[C@@H]3O)nc3c(OC)cccc23)cn1 (stereo partly shown) too.
*A* 247

*Q* Quick one: COc1ccc(Cc2cc(C(=O)N[C@H]3CCOC[C@@H]3O)nc3ccccc23)cn1
*A* 52

* * *

EC50 listing for selected compounds.
Target: acetylcholine muscarinic M1 receptor (Homo sapiens, UniProt P11229)
Construct: expressed in transfected cells; host or cells: CHOnfat (CHO cells; also called CHOK1/hM1)
Sequence (P11229 1-460): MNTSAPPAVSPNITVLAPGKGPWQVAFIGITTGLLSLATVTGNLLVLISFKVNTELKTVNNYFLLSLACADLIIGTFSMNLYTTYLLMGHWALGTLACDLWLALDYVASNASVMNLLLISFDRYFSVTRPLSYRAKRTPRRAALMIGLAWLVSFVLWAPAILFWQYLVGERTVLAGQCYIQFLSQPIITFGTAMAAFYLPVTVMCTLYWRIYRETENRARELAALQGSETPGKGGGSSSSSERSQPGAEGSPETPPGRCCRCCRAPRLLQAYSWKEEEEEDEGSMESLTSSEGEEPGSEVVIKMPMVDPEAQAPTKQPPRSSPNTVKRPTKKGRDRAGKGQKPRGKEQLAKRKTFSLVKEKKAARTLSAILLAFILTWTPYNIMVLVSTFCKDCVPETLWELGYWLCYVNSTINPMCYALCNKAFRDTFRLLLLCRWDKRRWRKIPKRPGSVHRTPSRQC
Assay: Muscarinic M1 FLIPR intracellular calcium assay for positive allosteric modulators
Assay type: cell-based
Conditions: IP = inflection point calculated from FLIPR values; CHOnfat/hM1 cells; 4 min preincubation, then EC20 acetylcholine (3 nM final); read-out: IP Value

Here is how some compounds turned out for EC50.
*Q* Item under review: Cn1cc(-c2ccc(Cc3cc(C(=O)N[C@H]4CCCC[C@@H]4O)nc4ccccc34)c[n+]2[O-])cn1 [Example 8] . Reported EC50?
*A* 21 nM

*Q* Also Cc1ccc(Cc2cc(C(=O)N[C@H]3CCCC[C@@H]3O)nc3ccccc23)cn1 [Example 2] , if possible.
*A* 143 nM

*Q* Cool, now O=C(N[C@H]1CCOC[C@@H]1O)c1cc(Cc2ccc(O)nc2)c2cccc(F)c2n1 [Example 20]
*A* 65 nM

Others:
*Q* If you can, please state the reported EC50 value of CSc1ccc(Cc2cc(C(=O)N[C@H]3CCCC[C@@H]3O)nc3ccccc23)cn1 [Example 7] .
*A* 37 nM
